Measured values drawn from patent US20220396631A1 for this set.

Biological target: T1, Human CD2 (human, UniProt P06729 25-209)
T1 construct: also called recombinant human CD2; CD2 extracellular domain
T1 sequence: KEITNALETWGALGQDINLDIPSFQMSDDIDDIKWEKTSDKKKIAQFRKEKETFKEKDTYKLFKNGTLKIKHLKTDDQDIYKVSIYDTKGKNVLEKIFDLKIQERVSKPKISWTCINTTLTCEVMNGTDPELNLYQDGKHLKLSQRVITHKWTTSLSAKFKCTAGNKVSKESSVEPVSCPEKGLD
Experiment: isothermal titration calorimetry; 100 uM CD2 titrated into 10 uM CD58 variant in HBS
Reported values of n (binding stoichiometry) for individual entries
Form: value (number only, do not type unit).

Solved cases below.
INSERT INTO measurements (binder, measured_parameter, value_observed) VALUES
  ('IgV V54C_G88C (ligand, Disulfide-stabilised variant) SQQIYGVVYGNVTFHVPSNVPLKECLWKKQKDKVAELENSEFRAFSSFKNRVYLDTVSCSLTIYNLTSSDEDEYEMESPNITDTMKFFLYVLESGGGGSHHHHHHHH', 'n (binding stoichiometry)', 0.83),
  ('CD58 Full ECD (ligand, Recombinant, made in HEK293 cells) SQQIYGVVYGNVTFHVPSNVPLKEVLWKKQKDKVAELENSEFRAFSSFKNRVYLDTVSGSLTIYNLTSSDEDEYEMESPNITDTMKFFLYVLESLPSPTLTCALTNGSIEVQCMIPEHYNSHRGLIMYSWDCPMEQCKRNSTSIYFKMENDLPQKIQCTLSNPLFNTTSSIILTTCIPSSGHSRHRGGGGSHHHHHHHH', 'n (binding stoichiometry)', 0.92);

Next binder, n (binding stoichiometry) to be filled in.
Lab note: measured n (binding stoichiometry) of IgV V45C_M105C (ligand, Disulfide-stabilised variant) SQQIYGVVYGNVTFHCPSNVPLKEVLWKKQKDKVAELENSEFRAFSSFKNRVYLDTVSGSLTIYNLTSSDEDEYECESPNITDTMKFFLYVLESGGGGSHHHHHHHH was 0.97
